These measurements were taken from paper PMC7460603.

Lab note: Ki readings collected with electric eel acetylcholinesterase (eeAChE) (Electrophorus electricus, UniProt O42275) for the following molecules.
Sequence (O42275 24-633): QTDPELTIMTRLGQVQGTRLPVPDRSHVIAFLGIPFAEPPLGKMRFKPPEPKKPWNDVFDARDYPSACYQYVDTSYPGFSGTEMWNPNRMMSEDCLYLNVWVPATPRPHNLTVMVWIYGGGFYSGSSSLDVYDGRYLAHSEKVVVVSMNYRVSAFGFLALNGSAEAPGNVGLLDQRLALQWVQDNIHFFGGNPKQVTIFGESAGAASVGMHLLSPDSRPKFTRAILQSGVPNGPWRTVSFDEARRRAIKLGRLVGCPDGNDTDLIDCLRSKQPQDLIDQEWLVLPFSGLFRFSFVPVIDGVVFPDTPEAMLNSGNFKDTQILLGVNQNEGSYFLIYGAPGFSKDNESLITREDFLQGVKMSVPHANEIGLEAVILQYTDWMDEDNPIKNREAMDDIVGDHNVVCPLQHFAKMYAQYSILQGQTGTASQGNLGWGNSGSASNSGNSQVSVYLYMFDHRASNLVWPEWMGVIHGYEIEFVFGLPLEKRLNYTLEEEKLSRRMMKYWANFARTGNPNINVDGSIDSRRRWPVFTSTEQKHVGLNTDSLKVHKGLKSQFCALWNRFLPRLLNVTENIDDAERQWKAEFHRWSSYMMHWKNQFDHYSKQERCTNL
quantity_measured: Ki (µM)

> print(dat)
                                   compound  value.observed
1  Cc1ccc(=S)n([O-])c1.Cc1ccc(C(C)C)cc1.[Cl-].[Ru+2]             9.7
2  Cc1ccc(C(C)C)cc1.Cc1cccc(=S)n1[O-].[Cl-].[Ru+2]             4.9
3  Cc1ccc(C(C)C)cc1.Cc1cccn([O-])c1=S.[Cl-].[Ru+2]             9.7
4  Cc1ccc(C(C)C)cc1.Cc1ccn([O-])c(=S)c1.[Cl-].[Ru+2]             8.5
5  Cc1ccc(C(C)C)cc1.[Cl][Ru+].[O-]n1ccccc1=S            15.1
6  Cc1ccc(C(C)C)cc1.[Cl][Ru+].[O-]n1ccc2ccccc2c1=S            12.3

###

Below, each entry is listed with its recorded pKi.
# target_of_assay: horse serum butyrylcholinesterase (hsBuChE) (Equus caballus)
# Sequence (P81908 whole entry): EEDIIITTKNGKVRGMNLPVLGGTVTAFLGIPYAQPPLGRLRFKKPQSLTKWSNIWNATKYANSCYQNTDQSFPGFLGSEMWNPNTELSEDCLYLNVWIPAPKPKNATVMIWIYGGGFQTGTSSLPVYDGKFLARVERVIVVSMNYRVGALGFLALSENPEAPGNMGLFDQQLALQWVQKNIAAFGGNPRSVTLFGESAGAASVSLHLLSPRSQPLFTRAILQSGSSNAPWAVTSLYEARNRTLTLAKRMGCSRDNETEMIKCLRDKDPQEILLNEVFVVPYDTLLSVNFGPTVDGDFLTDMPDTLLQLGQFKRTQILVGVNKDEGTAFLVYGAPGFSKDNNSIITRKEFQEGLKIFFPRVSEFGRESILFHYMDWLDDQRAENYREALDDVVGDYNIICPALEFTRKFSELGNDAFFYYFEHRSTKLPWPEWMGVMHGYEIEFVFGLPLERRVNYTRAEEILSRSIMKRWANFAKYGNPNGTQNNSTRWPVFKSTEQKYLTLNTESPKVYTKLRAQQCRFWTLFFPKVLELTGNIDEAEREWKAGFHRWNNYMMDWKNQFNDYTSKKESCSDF
# test_summary: biochemical
# condition: three substrate concentrations (0.125, 0.25, 0.5 mM)
pKi: −log10 of the molar value.
quantity_measured: pKi

> print(dat)
                                   compound  value.observed
1  Cc1ccc(C(C)C)cc1.Cc1cccn([O-])c1=S.[Cl-].[Ru+2]            6.40
2  Cc1ccc(C(C)C)cc1.Cc1ccn([O-])c(=S)c1.[Cl-].[Ru+2]            6.05
3  Cc1ccc(C(C)C)cc1.[Cl][Ru+].[O-]n1ccc2ccccc2c1=S            6.40
4  Cc1ccc(C(C)C)cc1.[Cl][Ru+].[O-]n1ccccc1=S            6.30
5  Cc1ccc(=S)n([O-])c1.Cc1ccc(C(C)C)cc1.[Cl-].[Ru+2]            6.40
6  Cc1ccc(C(C)C)cc1.Cc1cccc(=S)n1[O-].[Cl-].[Ru+2]            5.47

###

# target_of_assay: electric eel acetylcholinesterase (eeAChE) (Electrophorus electricus)
# test_summary: biochemical
# Format: biochemical
# Parameters: purchased Sigma, St. Louis, MO, USA
quantity_measured: IC50 (µM)

> print(dat)
                                   molecule  value.unit  value.observed
1  CN(C)C(=O)Oc1cccc([N+](C)(C)C)c1 [Neostigmine bromide, reference compound]          µM             4.3
